system-name: human ghrelin receptor (GRLN, growth hormone secretagogue receptor, hGHS-R1a) (Homo sapiens)
Construct: purchased PerkinElmer BioSignal #RBHGHSM, lot#1887; host or cells: HEK-293 cells, stably transfected (membranes)
Sequence (Q92847 whole entry): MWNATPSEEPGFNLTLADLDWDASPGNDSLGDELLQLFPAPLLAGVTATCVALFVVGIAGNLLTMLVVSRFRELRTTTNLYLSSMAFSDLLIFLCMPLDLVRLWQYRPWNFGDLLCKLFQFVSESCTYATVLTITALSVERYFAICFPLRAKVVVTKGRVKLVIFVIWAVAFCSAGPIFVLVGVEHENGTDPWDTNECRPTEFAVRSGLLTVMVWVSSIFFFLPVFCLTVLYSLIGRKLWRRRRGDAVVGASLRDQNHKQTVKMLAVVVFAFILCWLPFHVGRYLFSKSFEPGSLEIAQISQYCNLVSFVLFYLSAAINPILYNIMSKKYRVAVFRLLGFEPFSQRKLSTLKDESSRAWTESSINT
protocol-details: Competitive radioligand binding assay (ghrelin receptor), Method B1
Task for the reader: assign each of the following compounds its reported IC50.

Task item: Which IC50 is listed for CC(C)[C@@H]1NCCOc2ccccc2C[C@H](O)[C@@H](C)NC(=O)[C@@H](Cc2cccc(F)c2)NC(=O)[C@H](C(C)O)N(C)C1=O (some centres unmarked) [Compound 1503] ?
Reply: 1 to 10 nM

Task item: Which IC50 is listed for CCC(C)[C@@H]1NCCOc2ccccc2/C=C/CNC(=O)[C@@H](Cc2cccc(F)c2)NC(=O)[C@H](C(C)O)N(C)C1=O (some centres unmarked) [Compound 1326] ?
Reply: 10 to 100 nM

Task item: Which IC50 is listed for CC[C@@H]1NCC2CCc3cccc(c3O2)CCCNC(=O)[C@@H](Cc2ccccc2)NC(=O)[C@H](C(C)O)N(C)C1=O (some centres unmarked) [Compound 1780] ?
Reply: 10 to 100 nM

Task item: Which IC50 is listed for Cc1cccc(C[C@H]2NC(=O)[C@H](C(C)O)N(C)C(=O)[C@H](C(C)C)NCCOc3ccccc3C[C@H](O)CNC2=O)c1 (some centres unmarked) [Compound 1453] ?
Reply: 1 to 10 nM

Task item: Which IC50 is listed for CC(C)[C@@H]1NCCOc2ccccc2C#CCNC(=O)[C@@H](Cc2ccccc2)NC(=O)[C@H](C(C)O)N(C)C1=O (some centres unmarked) [Compound 1712] ?
Reply: 1 to 10 nM
